- ASSAYED_TARGET: JMJD5 (Homo sapiens, UniProt Q8N371)
- Sequence (Q8N371 whole entry): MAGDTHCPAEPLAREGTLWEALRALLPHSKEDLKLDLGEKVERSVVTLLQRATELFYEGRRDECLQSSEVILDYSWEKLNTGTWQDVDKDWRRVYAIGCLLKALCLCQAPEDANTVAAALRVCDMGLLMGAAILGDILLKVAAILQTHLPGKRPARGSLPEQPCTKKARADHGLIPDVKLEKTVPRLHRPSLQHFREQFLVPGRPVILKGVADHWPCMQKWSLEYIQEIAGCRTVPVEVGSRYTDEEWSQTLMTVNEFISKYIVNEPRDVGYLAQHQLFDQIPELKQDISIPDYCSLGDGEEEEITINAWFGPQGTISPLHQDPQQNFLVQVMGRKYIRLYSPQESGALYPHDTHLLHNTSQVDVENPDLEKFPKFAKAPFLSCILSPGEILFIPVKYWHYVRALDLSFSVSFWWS
- PROTOCOL_TEXT: biochemical
MEASURED_PARAMETER: IC50 (µM)
Form entry: value (µM) — number only.

Using JMJD5 (Homo sapiens, UniProt Q8N371) as the test system, report measured IC50 of O=C(O)Cc1cs/c(=N\C(=O)CCNC(=O)c2ccccc2)n1O [compound 17] .
4.6

Using JMJD5 (Homo sapiens, UniProt Q8N371) as the test system, report measured IC50 of CC(C(=O)O)c1cs/c(=N\C(=O)CS(=O)(=O)c2ccccc2)n1O (centres unmarked) [compound 6] .
60.5
